- conditionNotes: in isopropanol, 313.15 K
readout: solubility (mole fraction)
Respond with the number and no other words.

Query :: Quickly give me recorded solubility (mole fraction) for COC(=O)c1cc(O)c(O)c(O)c1
Result :: 0.0747

###

- conditionNotes: in n-propanol, 323.15 K
readout: solubility (mole fraction)
Respond with the number and no other words.

Query :: Quickly give me recorded solubility (mole fraction) for COC(=O)c1cc(O)c(O)c(O)c1
Result :: 0.0783

###

- conditionNotes: in acetone, 333.15 K
readout: solubility (mole fraction)
Respond with the number and no other words.

Query :: Quickly give me recorded solubility (mole fraction) for COC(=O)c1cc(O)c(O)c(O)c1
Result :: 0.161
